System: primary human hepatic stellate cells (donor 1)
Experiment: scaled lipid accumulation score (0 = DMSO-like, 1 = nortriptyline-like); higher = stronger HSC inactivation (lipid re-accumulation), active = hit call of the paper
Conditions: library stock concentration: 3.33 mM; 48 h
Hit rate of the full screen: of about 5,800 compounds, about 620 (11%) showed activity. Many of the other results were omitted from the sample, so actives are more common in it than they were.
I'd be grateful if you could share measured scaled lipid accumulation score for these entries.

The recorded scaled lipid accumulation score for CC1(C)CCC(CN2CCN(c3ccc(C(=O)NS(=O)(=O)c4ccc(NCC5CCOCC5)c([N+](=O)[O-])c4)c(Oc4cnc5[nH]ccc5c4)c3)CC2)=C(c2ccc(Cl)cc2)C1 is ≤ -0.009 (inactive)

Entry CC[C@H](CO)Nc1nc(NCc2ccccc2O)c2ncn(C(C)C)c2n1 ; scaled lipid accumulation score = 0.299 (inactive)

Input Cc1cc(Nc2cc(N3CCN(C)CC3)nc(C=Cc3ccccc3)n2)n[nH]1 . Output scaled lipid accumulation score: 1.06 (active)

Sample CN(C)CCCCC(=O)Nc1ccc(NC(=S)NC(=O)c2ccc(C(C)(C)C)cc2)cc1 ; scaled lipid accumulation score observed: 1.18 (active)

Entry C[C@]1(c2nc3c(C(N)=O)cccc3[nH]2)CCCN1 , scaled lipid accumulation score reported as ≤ 0 (inactive)

Memo: CNCc1ccc(-c2cc(-c3nc(-c4ccc(S(=O)(=O)C(C)C)cc4)cnc3N)on2)cc1 , reported scaled lipid accumulation score: 1.12 (active)

Entry O=C(Nc1ncc(SCCN2CCCC2)s1)[C@]1(c2ccc(S(=O)(=O)C3CC3)cc2)C[C@@H]1C1CCCCC1 , scaled lipid accumulation score reported as 1.12 (active)

Short answer for Nc1n[nH]c(N)c1N=Nc1ccc(O)cc1 : scaled lipid accumulation score was ≤ 0 (inactive)

* * *

System: primary human hepatic stellate cells (donor 1)
Test: scaled lipid accumulation score (0 = DMSO-like, 1 = nortriptyline-like); higher = stronger HSC inactivation (lipid re-accumulation), active = hit call of the paper
Settings: library stock concentration: 10 mM; 48 h
Structures can show the parent of a compound that is named as a salt. The campaign covered roughly 5,800 compounds. About 620 (11%) showed activity.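 How the source made its calls: active = score above a cut-off or among the top three wells of a plate; in these data no inactive exceeds 0.85.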 The sample holds actives, similar compounds and a random draw of the others, so the mix is not that of the screen.
Please answer using one outcome listed in true (active), false (inactive)

Field: outcome | Entry: O=C(O)CSCC(=O)NC1CCSC1=O (stereo unspecified) false

I would be grateful if you could indicate the recorded call for O=C(O)CSCC(=O)NC1CCSC1=O (stereo unspecified) [Erdosteine] . false

// return assay outcome for Clc1ccc(C2(c3ccc(-c4cn[nH]c4)cc3)CCNCC2)cc1 true

Per the assay record, what outcome was assigned to CN(C)C(=O)Nc1cccc(-c2ccc(N(C)C)cc2)c1 ? false

Test call, this molecule: CCCS(=O)(=O)Nc1ccc(F)c(C(=O)c2c[nH]c3ncc(-c4ccc(Cl)cc4)cc23)c1F false

Identify the outcome logged in this assay for the molecule shown: CCCCOc1cc(C(=O)NCCN(CC)CC)c2ccccc2n1 [Dibucaine hydrochloride] false

* * *

Tested on: primary human hepatic stellate cells (donor 1)
Assay: scaled lipid accumulation score (0 = DMSO-like, 1 = nortriptyline-like); higher = stronger HSC inactivation (lipid re-accumulation), active = hit call of the paper
Conditions: library stock concentration: 10 mM; 48 h
Out of some 5,800 compounds screened, about 620 (11%) showed activity.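 How the source made its calls: active = score above a cut-off or among the top three wells of a plate; in these data no inactive exceeds 0.85.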 The list comes from a sample in which actives are over-represented; it also holds close analogues and randomly drawn compounds.
Choose one outcome from this list and give only that: class 1 for active, class 0 for inactive

Recorded test call requested for CC1=C(/C=C/C(C)=C/C=C/C(C)=C/CO)C(C)(C)CCC1 class 0

Hey, what did the test say about CCc1cc2c(cc1CC)CC(NC[C@H](O)c1ccc(O)c3[nH]c(=O)ccc13)C2.O=C(O)C=CC(=O)O [Indacaterol Maleate] ? class 1

Hey, what did the test say about CC1CC(OC(=O)C(O)c2ccccc2)CC(C)(C)C1 (centres undefined) [Cyclandelate] ? class 0

For this compound, state the assay outcome: CC(C)(OCc1nn(Cc2ccccc2)c2ccccc12)C(=O)O class 0

Would you mind telling me which call this test gave N[C@@H](Cc1ccc(O)c(I)c1)C(=O)O ? class 0

Give the logged outcome of this assay for the following compound: O=C(O)Cc1ccccc1Nc1c(Cl)cccc1Cl [Diclofenac Sodium] class 0

What outcome does the record of this test show for O.O.O.O.O=C([O-])CC(O)(CC(=O)[O-])C(=O)[O-].[Li+].[Li+].[Li+] [Lithium citrate] ? class 0

Dear all, I need the recorded test outcome for CC1CC(OC(=O)C(O)c2ccccc2)CC(C)(C)C1 (centres undefined) , thank you. class 0

Dear all, I need the recorded test outcome for O=C(O)Cc1ccccc1Nc1c(Cl)cccc1Cl [Diclofenac Diethylamine] , thank you. class 0

* * *

Tested on: primary human hepatic stellate cells (donor 1)
Experiment: scaled lipid accumulation score (0 = DMSO-like, 1 = nortriptyline-like); higher = stronger HSC inactivation (lipid re-accumulation), active = hit call of the paper
Details: library stock concentration: 80 uM; 48 h
Hit rate of the full screen: of about 5,800 compounds, about 620 (11%) showed activity. This excerpt belongs to a sample that is enriched for actives.
Experimental Readout: scaled lipid accumulation score

# molecule CC(=O)c1cnc2ccc(-c3cc(Cl)c(O)c(Cl)c3)nc2c1N[C@H]1CC[C@H](CN(C)C)CC1 ; its scaled lipid accumulation score = 0.258 (inactive)

Lab note: Cc1cc2c(F)c(Oc3ncnn4cc(OC[C@@H](C)O)c(C)c34)ccc2[nH]1 gave scaled lipid accumulation score of ≤ -0.009 (inactive)

Reported scaled lipid accumulation score ( Cc1ccc(C(=O)Nc2ccc(CN3CCN(C)CC3)c(C(F)(F)F)c2)cc1C#Cc1cnc2cccnn12 ) = 0.459 (inactive)

scaled lipid accumulation score measured on CN1CCN(c2ccc(OC(F)(F)F)c(Nc3ncc4c(n3)-c3c(c(C(N)=O)nn3CCO)CC4)c2)CC1 = ≤ 0 (inactive)

Notebook: CCN1CCN(Cc2ccc(Nc3ncc4c(n3)N(C)c3ccccc3C(=O)N4C)cc2C(F)(F)F)CC1 , scaled lipid accumulation score read as 0.012 (inactive)

scaled lipid accumulation score reported for this molecule O=C(Nc1ccc2[nH]nc(-c3ccncc3)c2c1)[C@@H]1CCN(CC(=O)N2CCN(c3ccc(-c4ncccn4)cc3)CC2)C1 : ≤ -0.001 (inactive)

The reported value for Cc1cnc(-c2cnc(NCCNc3ccc(C#N)cn3)nc2-c2ccc(Cl)cc2Cl)[nH]1 in terms of scaled lipid accumulation score is 0.041 (inactive)

response.value for O=C(NC1CCNCC1)c1n[nH]cc1NC(=O)c1c(Cl)cccc1Cl (field: scaled lipid accumulation score) = 0.367 (inactive)

* * *

Tested on: primary human hepatic stellate cells (donor 1)
Test: scaled lipid accumulation score (0 = DMSO-like, 1 = nortriptyline-like); higher = stronger HSC inactivation (lipid re-accumulation), active = hit call of the paper
Details: library stock concentration: 400 uM; 48 h
Out of some 5,800 compounds screened, about 620 (11%) showed activity. This excerpt belongs to a sample that is enriched for actives.
Assign scaled lipid accumulation score to each entry below.

# scaled lipid accumulation score (compound: COc1cc(CCc2cc(NC(=O)c3ccc(N4CC(C)NC(C)C4)cc3)n[nH]2)cc(OC)c1 (stereo not drawn) ) is ≤ -0.016 (inactive)

The measured scaled lipid accumulation score associated with COc1cc2nccc(Oc3ccc(NC(=O)C4(C(=O)Nc5ccc(F)cc5)CC4)cc3)c2cc1OC reads ≤ -0.016 (inactive)

O=c1oc2c(O)c(O)cc3c(=O)oc4c(O)c(O)cc1c4c23 yielded scaled lipid accumulation score of ≤ 0 (inactive)

compound C=C(C)[C@@H](CC=C(C)C)C[C@@]12C[C@@H](CC=C(C)C)C(C)(C)[C@@](CC=C(C)C)(C(=O)C(C(=O)c3ccc(O)c(O)c3)=C1O)C2=O , scaled lipid accumulation score observed: ≤ 0 (inactive)

Lookup result for COc1cc2ncn(-c3cc(OCc4ccccc4C(F)(F)F)c(C(N)=O)s3)c2cc1OC ; measured scaled lipid accumulation score: ≤ 0 (inactive)

Query C1=N/C2=N/c3ccc(OCCN4CCCC4)c(c3)COC/C=C/COCc3cccc(c3)C(=C1)N2 yields scaled lipid accumulation score of 0.686 (inactive)

Recorded scaled lipid accumulation score (compound CCc1cncnc1N1CCN(Cc2nc3ccc(C(F)(F)F)cc3[nH]2)CC1 ): ≤ 0 (inactive)

What the record says about COc1cc2c(Oc3ccc(NC(=O)C4(C(=O)Nc5ccc(F)cc5)CC4)cc3F)ccnc2cc1OCCCN1CCOCC1 : scaled lipid accumulation score is 0.545 (inactive)

* * *

Provide the reported scaled lipid accumulation score of each item.
System: primary human hepatic stellate cells (donor 1)
Test: scaled lipid accumulation score (0 = DMSO-like, 1 = nortriptyline-like); higher = stronger HSC inactivation (lipid re-accumulation), active = hit call of the paper
Conditions: library stock concentration: 5.8 mM; 48 h
Where a name gives a salt, the structure may show the parent alone. The campaign covered roughly 5,800 compounds. About 620 (11%) showed activity. The list comes from a sample in which actives are over-represented; it also holds close analogues and randomly drawn compounds.
Provide a numeric answer; units are not to be included.

Looking up COc1ccc2[nH]c([S+]([O-])Cc3ncc(C)c(OC)c3C)nc2n1 (stereo not given) [Tenatoprazole] , I see its scaled lipid accumulation score listed as 0.081

Form: compound = CN1CCC[C@@H]1CCO[C@](C)(c1ccccc1)c1ccc(Cl)cc1 [Clemastine fumarate] ; scaled lipid accumulation score = 0.885

// scaled lipid accumulation score lookup, compound = CN1CCN(C2=Nc3ccccc3Sc3ccc(Cl)cc32)CC1 [Clothiapine] , result: 0.413

Lookup result for CNCCC(Oc1ccc(C(F)(F)F)cc1)c1ccccc1.Cl (stereo not given) [Fluoxetine] ; measured scaled lipid accumulation score: 0.96

Item: CN(C)CCCOc1nn(Cc2ccccc2)c2ccccc12 [Benzydamine hydrochloride] | scaled lipid accumulation score: 0.429
